- System: SW-620
- Run Description: NCI tumour cell line growth inhibition, 48 h
Active and inactive are the calls of the source. No stated cut-off is given here; in the data, active = GI50 up to about 1.1 µM and inactive = higher.
Measured Property: GI50

Enquiry: Report GI50 for O=C1NC(=O)C(CC2CCCCCCCCCCC2=O)C(=O)N1 (stereo not given) please.
Return: > 100 µM (inactive)

Enquiry: Report GI50 for CC1CCC(=O)C(C(O)CC2CC(=O)N(c3ccccc3)C(=O)C2)C1 (stereo not given) please.
Return: > 100 µM (inactive)

Enquiry: Report GI50 for Cc1cccc(NC(=O)C(=O)C2C(=O)NC(=O)NC2=O)c1C please.
Return: > 100 µM (inactive)

Enquiry: Report GI50 for Clc1ccc(OCc2nnc3sc(SSc4nn5c(COc6ccc(Cl)cc6)nnc5s4)nn23)cc1 please.
Return: > 100 µM (inactive)

Enquiry: Report GI50 for O=S(=O)(N/C(=N\O)Nc1ccc(Cl)cc1)c1cc2ccccc2s1 please.
Return: 23.7 µM (inactive)

----------
- Tested on: SNB-75
- Run Description: NCI tumour cell line growth inhibition, 48 h
Activity calls are given as the source filed them. Cut-off read from the data, not from the text of the source: active = GI50 up to about 1.1 µM and inactive = higher.
Mark one answer only. Choices: class 1 (active), class 0 (inactive)

Enquiry: What was the test verdict on O=C(Nc1nc2ncn(CCO)c2c(=O)[nH]1)c1ccccc1 ?
Return: class 0

Enquiry: What was the test verdict on O=C1NC(=O)C(CC2CCCCCCCCCCC2=O)C(=O)N1 (stereo not given) ?
Return: class 0

Enquiry: What was the test verdict on C=CNC(=O)NC(=O)CSc1nc(=O)c(-c2ccccc2NC(=O)C(F)(F)F)n[nH]1 ?
Return: class 1

Enquiry: What was the test verdict on CCN1CCC(O)(/C=C/c2ccccc2)C(C(=O)/C=C/c2ccccc2)C1 (stereo not given) ?
Return: class 0

Enquiry: What was the test verdict on COc1ccc2c(c1)c(=O)c1ccccc1n2/C=C/C(=O)O ?
Return: class 0

Enquiry: What was the test verdict on CC1=C(c2ccc(C)cc2)NC(=S)C(C)C(c2ccc(C)cc2)=N1 (stereo not given) ?
Return: class 0

Enquiry: What was the test verdict on C[C@]1(CO)[C@H]2CC[C@@]34C=C[C@@](CO)(CC[C@H]3[C@]2(C)CC[C@H]1O)C4 ?
Return: class 0

Enquiry: What was the test verdict on CC1CCC(=O)C(C(O)CC2CC(=O)N(c3ccccc3)C(=O)C2)C1 (stereo not given) ?
Return: class 0

Enquiry: What was the test verdict on O=c1cc(NCc2ccncc2)[nH]c(=O)[nH]1 ?
Return: class 0

Enquiry: What was the test verdict on O=C(O)C(Cc1cccs1)C(=O)O ?
Return: class 0

Enquiry: What was the test verdict on CCCC(=O)Oc1c2ccsc2c(OC(=O)CCC)c2ccsc12 ?
Return: class 0

Enquiry: What was the test verdict on Cc1ccc(S(=O)(=O)NC2(C=O)CCCC3CCCCC32)cc1 (stereo not given) ?
Return: class 0

Enquiry: What was the test verdict on CC(C)C1CCC/C=C/C=C/C=C/C=C/C(OC2OC(C)C(O)C(N)C2O)CC2OC(O)(CC(O)CC(O)C(O)CCC(=O)O1)CC(O)C2C(=O)O (stereo not given) ?
Return: class 0

Enquiry: What was the test verdict on O=C1NC(N2CCCC(CO)C2)=N/C1=C\c1ccc(O)cc1 (stereo not given) ?
Return: class 0

Enquiry: What was the test verdict on CC(=O)N(C)SCC(NC(=O)C(Cc1ccccc1)NC(=O)OCc1ccccc1)C(=O)NC(Cc1ccccc1)C(=O)NC(Cc1cn(C=O)c2ccccc12)C(=O)NC(CCCCNC(=O)OCc1ccccc1)C(=O)NC(C(=O)NC(CSN(C)C(C)=O)C(=O)NO)C(C)OCc1ccccc1 (stereo not given) ?
Return: class 0

Enquiry: What was the test verdict on O=C(Nc1nc2c(=O)[nH]cnc2s1)c1ccccc1 ?
Return: class 0

Enquiry: What was the test verdict on Cc1c2n(c(=O)[nH]c1=O)C1OC(CO)C(O2)C1O (stereo not given) ?
Return: class 0

Enquiry: What was the test verdict on Cc1ccc2oc(=O)c(-c3ccccc3)nc2c1 ?
Return: class 0

Enquiry: What was the test verdict on NC(CCCC(N)P(=O)(O)c1ccccc1)P(=O)(O)c1ccccc1 (stereo not given) ?
Return: class 0

Enquiry: What was the test verdict on CCCCCC[N+](C)(C)Cc1ccc(C[N+](C)(C)CCCCCC)cc1 ?
Return: class 0

----------
- Tested on: OVCAR-8
- Run Description: NCI tumour cell line growth inhibition, 48 h
Activity calls are given as the source filed them. Rule as the data show it: active = GI50 up to about 1.1 µM and inactive = higher.
Mark one answer only. Choices: active, inactive

Enquiry: What was the test verdict on CCN(CC)CCCNc1[nH]c2ccccc2c2nc3ccc(OC)cc3c1-2 ?
Return: active

Enquiry: What was the test verdict on CCOC(=O)/C=C1\Oc2ccccc2C1(C)O (stereo unspecified) ?
Return: inactive

Enquiry: What was the test verdict on N#Cc1c(N)c(-c2ccc(Cl)cc2)c(F)c2ccccc12 ?
Return: inactive

Enquiry: What was the test verdict on N#CC(C#N)=C1C(C#N)=C(N)NC12OCCO2 ?
Return: inactive

Enquiry: What was the test verdict on O=C(NCc1ccccc1Cl)c1c(O)c2ccccc2[nH]c1=O ?
Return: inactive

Enquiry: What was the test verdict on Nc1ccc(-c2nn3c(COc4ccc(Cl)cc4)nnc3s2)cc1 ?
Return: inactive

Enquiry: What was the test verdict on COC(=O)c1ccc2n[se]nc2c1 ?
Return: inactive

Enquiry: What was the test verdict on CCOc1cc(NC(C)=O)ccc1C(=O)NN1C(=O)C(Cl)C1c1ccc(O)c(OC)c1 (stereo unspecified) ?
Return: inactive

Enquiry: What was the test verdict on N#Cc1c(-c2ccccc2)c2c([nH]c1=O)-c1cc([N+](=O)[O-])ccc1CCC2 ?
Return: inactive

Enquiry: What was the test verdict on C[C@]12CC[C@H](O)C[C@H]1CC[C@@H]1[C@@H]2CC[C@]2(C)[C@@H](C3=CC(=O)OC3)CC[C@]12O [DIGITOXIGENIN] ?
Return: active

Enquiry: What was the test verdict on COc1ccc(NC2Oc3cc4c(cc3C(c3cc(OC)c(O)c(OC)c3)C2C)OCO4)cc1 (stereo unspecified) ?
Return: inactive

Enquiry: What was the test verdict on COc1ccc(OC)c(NS(=O)(=O)c2ccc3nc(C)n(NS(=O)(=O)c4cc(OC)ccc4OC)c(=O)c3c2)c1 ?
Return: inactive

Enquiry: What was the test verdict on CC1=NN(C(=O)CC(=O)Nc2cccc(C)c2)C(=O)C1/N=N/c1ccc(S(=O)(=O)CCOS(=O)(=O)O)cc1 (stereo unspecified) ?
Return: active

Enquiry: What was the test verdict on O=C(NS(=O)(=O)OCC(Cl)(Cl)Cl)SCCC(F)(F)C(F)(F)C(F)(F)C(F)(F)C(F)(F)C(F)(F)F ?
Return: inactive

Enquiry: What was the test verdict on CC1=N/C(=C/c2ccc3c(c2)OCO3)C(=O)O1 ?
Return: inactive

Enquiry: What was the test verdict on CC(C)c1nccn1Cc1ccc(Cl)cc1Cl ?
Return: inactive

Enquiry: What was the test verdict on Cc1n[nH]c(=O)n1/N=C\CC/C=N\n1c(C)n[nH]c1=O ?
Return: inactive

Enquiry: What was the test verdict on CC(C)(O)/C=C/C(=O)[C@](C)(O)[C@H]1[C@H](O)C[C@@]2(C)[C@@H]3CC=C4[C@@H](C[C@H](O)C(=O)C4(C)C)[C@]3(C)C(=O)C[C@]12C [CUCURBITACIN D] ?
Return: active

Enquiry: What was the test verdict on COc1ccc(C2C=C(c3ccccc3)Nc3nnnn32)cc1 (stereo unspecified) ?
Return: inactive

Enquiry: What was the test verdict on CC#CCCCC1(C)CCNC1=S (stereo unspecified) ?
Return: inactive

Enquiry: What was the test verdict on O=C(O)c1cccc(C(=O)O)c1[S+]([O-])Cc1ccccc1 (stereo unspecified) ?
Return: inactive

Enquiry: What was the test verdict on COP(=O)(CC(=O)C1OC(OCc2ccccc2)C(OCc2ccccc2)C(OCc2ccccc2)C1OCc1ccccc1)OC (stereo unspecified) ?
Return: inactive

Enquiry: What was the test verdict on CCCC(=O)Oc1c2ccsc2c(OC(=O)CCC)c2ccsc12 ?
Return: active

Enquiry: What was the test verdict on CC1CCC(=O)C(C(O)CC2CC(=O)N(c3ccccc3)C(=O)C2)C1 (stereo unspecified) ?
Return: inactive

Enquiry: What was the test verdict on CCN(N=O)C1C2(CCCC2)NC(=O)C12CCCC2 (stereo unspecified) ?
Return: inactive

Enquiry: What was the test verdict on CC12CCC3C(CCC4=CC(O)CCC43C=O)C1(O)CCC2c1ccc(=O)oc1 (stereo unspecified) ?
Return: active

Enquiry: What was the test verdict on CCCN(CCCN)/[N+]([O-])=N\O ?
Return: inactive

Enquiry: What was the test verdict on CSc1c(C#N)c(N)n(-c2ccc(C)cc2)c(=O)c1C#N ?
Return: inactive

Enquiry: What was the test verdict on CCc1c(-c2coc(CC/C(C)=C/c3ccccc3)n2)oc(OC)c(C)c1=O ?
Return: inactive

Enquiry: What was the test verdict on Oc1cc(Cl)cc2cc(Br)cnc12 ?
Return: inactive

Enquiry: What was the test verdict on Nc1nc(Cl)cc(NCC2(CO)CCC(OCc3ccccc3)C2)n1 (stereo unspecified) ?
Return: inactive

Enquiry: What was the test verdict on O=C1NC(=O)C(C(=O)C(=O)Nc2cc(Cl)ccc2Cl)C(=O)N1 ?
Return: inactive

Enquiry: What was the test verdict on O=C1c2ccccc2C(=O)N1CCN(CCN1C(=O)c2ccccc2C1=O)Cn1cccn1 ?
Return: inactive

Enquiry: What was the test verdict on CCN1CCC(O)(/C=C/c2ccccc2)C(C(=O)/C=C/c2ccccc2)C1 (stereo unspecified) ?
Return: inactive

Enquiry: What was the test verdict on NC(Cc1cc(I)c(O)c(I)c1)C(=O)O (stereo unspecified) ?
Return: inactive

Enquiry: What was the test verdict on CC(C)[Si]1(C(C)C)OCC2OC(n3ccc(=O)[nH]c3=O)C(O)(CO)C2O[Si](C(C)C)(C(C)C)O1 (stereo unspecified) ?
Return: inactive

Enquiry: What was the test verdict on C[n+]1c(-c2ccc(/C=N/NC(=O)c3ccc(C(=O)N/N=C/c4ccc(-c5cn6ccccc6[n+]5C)cc4)cc3)cc2)cn2ccccc21 ?
Return: inactive

Enquiry: What was the test verdict on CC(C)N(C(=O)C12C3(C(=O)OC(C)(C)C)C4C5(C#N)C3C1(C(=O)OC(C)(C)C)C5C42C(=O)OC(C)(C)C)C(C)C (stereo unspecified) ?
Return: inactive

Enquiry: What was the test verdict on O=C1C(=O)C2(CC1S(=O)(=O)c1ccccc1)c1ccccc1-c1ccccc12 (stereo unspecified) ?
Return: inactive

Enquiry: What was the test verdict on CC1NC(=O)C2=C1C(N)=NC(=O)C2 (stereo unspecified) ?
Return: inactive

Enquiry: What was the test verdict on C#C[C@H](CCCC)OC(=O)N[C@H](C)c1ccccc1 ?
Return: inactive
